- Test system: K-562 leukemia
- measurement_protocol: NCI tumour cell line growth inhibition, 48 h
Provide the recorded TGI for the entries that follow.
Numbers only, in µM.

Take a look at these entries with their results.
Nn1c(Nc2ccc(S(N)(=O)=O)cc2)nnc(/C=C/c2c(O)ccc3ccccc23)c1=O | 34.5
O=c1ccc2ccc(CBr)cc2o1 | 5.2
Clc1ccc(CCNC2(c3cc4ccccc4s3)CCCCC2)cc1Cl | 36.7
COc1ccc(-c2cc(/C=C3\C(=O)Nc4cc(Cl)ccc43)[nH]n2)cc1 | 32.3
CCC12CCCN(Cc3ccccc3)C1c1c(n(C)c3ccccc13)C(CO)C2 (stereo not drawn) | 107
CC(=O)c1ccccc1NC(=O)C(=O)C(C(=O)c1ccc2ccccc2c1)C1OC(=O)c2ccccc21 (stereo not drawn) | 70.3
O=C(COc1ccccc1Cl)N1N=C(c2ccccc2)CC1(O)c1ccccc1 (stereo not drawn) | 54.9
O=C(c1ccccc1)C(Cl)C(Cl)c1ccccc1 (stereo not drawn) | 10.3

Hi! Can you tell me TGI for each of these molecules?
1. CC#C[C@]1(O)CCC2[C@@H]3CCC4=CC(=O)CCC4=C3[C@@H](c3ccc(N(C)C)cc3)C[C@@]21C (stereo partly drawn)
2. COc1cc(-c2cc3ncccc3c3nc(OCCN(C)C)c4cccnc4c23)cc(OC)c1OC
3. O=C1/C(=C/c2ccc([N+](=O)[O-])s2)Oc2cc(Cl)ccc21

[reply]
[58.8, 4.63, 1.46]

[ask] Please indicate TGI recorded for CCOC(=O)/C=C(/C(=O)OCC)n1cc(C)c(=O)n(Cc2cnnn2COCCOC(C)=O)c1=O
[reply] 24.8

* * *

- Tested on: OVCAR-5 ovarian
- measurement_protocol: NCI tumour cell line growth inhibition, 48 h
Kindly state TGI for each of the entries shown.

Cc1ccc(S(=O)(=O)N2CCC[C@@H]2C(=O)O[C@@H]2CCC3CC=CC32)cc1 (stereo not given in full) | > 100 µM
COC(=O)C1CSC(c2csc(CCN)n2)=N1 (stereo not given) | > 100 µM
Oc1c(CN2CCCC2)ccc2cccnc12 | > 100 µM
COc1cc(CC(C)=O)cc(OC)c1 | > 100 µM
O=[N+]([O-])c1cc(-c2nc(=S)[nH][nH]2)ccc1O | > 100 µM
COc1ccc(-n2c(SC(CN3CCOCC3)CN3CCCC3=O)nc3ccccc3c2=O)cc1 (stereo not given) | > 100 µM
NC(=O)c1cccc2c(N[C@H](CN3CCC3)c3ccc(Cl)c(C(F)(F)F)c3)ncnc12 | 13.5 µM
O=C(Cc1ccccc1[N+](=O)[O-])C(CO)c1ccccc1[N+](=O)[O-] (stereo not given) | > 100 µM
Cc1ccccc1NC(=O)Cc1csc(N/N=C2\NC(=O)/C(=C/c3cccc([N+](=O)[O-])c3)S2)n1 | 45.8 µM

Then there is this molecule:
[ask] Complete the entry with TGI for CN1CCN(C(=O)CCC(=O)Nc2cc3c(c4ccccc24)-c2ccc4ccccc4c2C3)CC1
[reply] 3.15 µM

* * *

- Test system: HOP-62 NSCLC
- measurement_protocol: NCI tumour cell line growth inhibition, 48 h
assay_endpoint: TGI

Use these answered entries as a reference point.
COc1cc2c(NCCCCCO)ncnc2c(OC)c1OC | > 100 µM
N/C=N/S(=O)(=O)c1ccc(NC(=O)COC(=O)c2cccc3c(=O)c4ccccc4[nH]c23)cc1 | > 100 µM

State recorded TGI for all listed compounds.
1. CCOC(=O)c1c(NS(=O)(=O)c2ccc(C)cc2)sc2c1CCCC2
2. COC(=O)Nc1nc2ccc(S(=O)(=O)Nc3ccccn3)cc2[nH]1
3. CS(=O)(=O)N1CCC(n2c(=O)c(Oc3ccc(F)cc3F)cc3cnc(NC4CCOCC4)nc32)CC1
4. N#Cc1c(N)oc(-c2ccc([N+](=O)[O-])cc2)c1C#N
5. O=C(Cc1ccccc1[N+](=O)[O-])C(CO)c1ccccc1[N+](=O)[O-] (stereo not given)
6. Cn1cc(C2=C(c3c4n(c5ccccc35)CCNC4)C(=O)NC2=O)c2ccccc21
7. CC(=O)OCC1OC(n2cnc3nc(Br)[nH]c(=O)c32)C(OC(C)=O)C1OC(C)=O (stereo not given)

[reply]
1. 60.2 µM
2. > 100 µM
3. > 25 µM
4. 73.5 µM
5. > 100 µM
6. > 25 µM
7. > 100 µM

[ask] Let me know recorded TGI for O=C(CCBr)N1CCN(C(=O)CCBr)CC1 , thanks.
[reply] 155 µM
